src = the supplement of paper PMC12667976

Hi there, I'd appreciate the recorded AIRE transcriptional activation functional score for every entry that follows.
B1: library; numbered along this chain (parent)
chain: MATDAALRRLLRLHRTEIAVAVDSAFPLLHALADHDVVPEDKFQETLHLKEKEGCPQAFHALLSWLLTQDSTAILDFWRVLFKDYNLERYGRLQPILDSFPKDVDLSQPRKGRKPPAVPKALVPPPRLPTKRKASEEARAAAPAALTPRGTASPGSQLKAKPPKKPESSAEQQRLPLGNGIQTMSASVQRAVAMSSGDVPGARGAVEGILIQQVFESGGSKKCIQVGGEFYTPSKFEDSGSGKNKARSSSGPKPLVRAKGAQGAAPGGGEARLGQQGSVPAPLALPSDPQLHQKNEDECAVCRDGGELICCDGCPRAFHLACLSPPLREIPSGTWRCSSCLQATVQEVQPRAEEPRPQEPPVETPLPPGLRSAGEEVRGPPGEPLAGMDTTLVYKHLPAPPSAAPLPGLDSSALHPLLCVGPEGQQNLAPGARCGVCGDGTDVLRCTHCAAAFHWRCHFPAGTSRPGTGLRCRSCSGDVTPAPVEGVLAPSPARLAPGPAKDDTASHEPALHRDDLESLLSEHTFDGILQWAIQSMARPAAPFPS

Variants of: B1
Measurement Notes: AIRE transcriptional activation functional score (insulin promoter-GFP; nonsense median 0, synonymous median 1) (normalised score); higher = higher AIRE activity (more reporter activation)
Assay Context: with insulin promoter-GFP reporter in HEK293
Numbers only.

INSERT INTO assay_data (variant_code, quantitative_readout) VALUES
  ('A6I', 0.395),
  ('A413R', 0.964);

Batch: AIRE transcriptional activation functional score for all items listed.
1. M184T
2. R113L
3. F82G
4. H458M
5. Q275C
6. M184D
7. G263V
8. L158N

[0.688, 0.951, 0.401, 0.387, 1.08, -0.962, 1.25, 1.19]

Batch: AIRE transcriptional activation functional score for all items listed.
1. A510L
2. M388L
3. K120L
4. R149G

1.04
1.17
1.13
0.663

Batch: AIRE transcriptional activation functional score for all items listed.
1. V104L
2. A160C
3. A265N
4. K165W
5. E53K
6. H458N

1: 0.894; 2: 1.05; 3: 1.54; 4: 1.06; 5: 1.55; 6: 0.71

Batch: AIRE transcriptional activation functional score for all items listed.
1. V188I
2. P326Q

[1.01, 0.303]
